# experimental protocol: Quantitative High-Throughput drug screen in 47 multiple myeloma cell lines against the NCATS MIPE library collection: KMS28BM_JCRB cell viability assay (AID 1919874); further: nearly all actives have a fitted effect of over 35% in size
# cond: CellTiter-Glo ATP, 48 h; series mostly up to 45.8 µM
Inconclusive results are not listed. Activity calls are given as the source filed them. The call rests on the fitted dose curve; in most records, active means well fitted cell-killing curve with a large enough effect; inconclusive means small, poorly fitted or top-dose-only effect, or effect the other way; inactive means no such curve, though single readings can be large or run the other way.
Outcome codes: T (active), F (inactive)

In [3]: df
Out[3]:
                                    compound  label_value
 0  CN(CCOc1ccc(CC2SC(=O)NC2=O)cc1)c1ccccn1 (stereo not drawn)            F
 1                    S=P(N1CC1)(N1CC1)N1CC1            F
 2  CCCc1nc(C)c2c(=O)[nH]c(-c3cc(S(=O)(=O)N4CCN(CC)CC4)ccc3OCC)nn12            T
 3  CC(=O)[C@H]1CC[C@H]2[C@@H]3CC=C4C[C@@H](O)CC[C@]4(C)[C@H]3CC[C@]12C            F
 4                   Oc1c(Cl)cc(Cl)c2cccnc12            T
 5  CCn1cc(C(=O)O)c(=O)c2cc(F)c(N3CCNCC3)cc21            F
 6  CCOCC(O)COc1ccc(NC(=O)CC[S+](C)C)cc1 (stereo not drawn)            F
 7  Nc1nc(N)c2nc(CNc3ccc(C(=O)NC(CCC(=O)O)C(=O)O)cc3)cnc2n1 (stereo not drawn)            T
 8  COc1ccc(C(=O)CC(=O)c2ccc(C(C)(C)C)cc2)cc1            T
 9        CC(C)OC(=O)C(C(=O)OC(C)C)=C1SC=CS1            F
10       COc1ncnc(NS(=O)(=O)c2ccc(N)cc2)c1OC            F
11  COc1c(N2CCNC(C)C2)c(F)cc2c(=O)c(C(=O)O)cn(C3CC3)c12 (stereo not drawn)            F
12  CN1CCCC(n2nc(Cc3ccc(Cl)cc3)c3ccccc3c2=O)CC1 (stereo not drawn)            T
13  COc1cc(NCc2ccc3nc(N)nc(N)c3c2C)cc(OC)c1OC            T
14  CN(C)CCc1c[nH]c2ccc(C[C@H]3COC(=O)N3)cc12            F
15     CNS(=O)(=O)Cc1ccc2[nH]cc(CCN(C)C)c2c1            F
16  NC1(c2ccc(-c3nc4ccn5c(=O)[nH]nc5c4cc3-c3ccccc3)cc2)CCC1            T
17  COC(c1ccccc1)(c1ccccc1)[C@H](Oc1nc(C)cc(C)n1)C(=O)O            F
18             Nc1ccc(S(=O)(=O)Nc2ccccn2)cc1            F
19  CC1CC2C3CCC4=CC(=O)C=C[C@]4(C)[C@@]3(F)[C@@H](O)C[C@]2(C)[C@@]1(O)C(=O)CO (stereo partly drawn)            F
20  CCn1cc(C(=O)O)c(=O)c2cc(F)c(N3CCNCC3)nc21            F
21                            NC(=O)c1cccnc1            F
22  Cc1onc(-c2ccccc2Cl)c1C(=O)N[C@@H]1C(=O)N2[C@@H]1SC(C)(C)[C@@H]2C(=O)O            F
23                 CNNCc1ccc(C(=O)NC(C)C)cc1            F
24  Cn1c(=O)c2c(ncn2CC(O)CO)n(C)c1=O (stereo not drawn)            F
25                   CC1=NN(c2ccccc2)C(=O)C1            F
26      CCOC(=O)c1ccc(OC(=O)CCCCCN=C(N)N)cc1            F
27  COCCCOc1cc(C[C@@H](C[C@H](N)[C@@H](O)C[C@H](C(=O)NCC(C)(C)C(N)=O)C(C)C)C(C)C)ccc1OC            F
28      OCc1ccc(-c2nn(Cc3ccccc3)c3ccccc23)o1            F
29  Nc1nc(F)nc2c1ncn2[C@@H]1O[C@H](CO)[C@@H](O)[C@@H]1O            T
30           Cc1cc(NS(=O)(=O)c2ccc(N)cc2)no1            F
31  CCC(=O)O[C@]1(C(=O)CCl)[C@@H](C)C[C@H]2[C@@H]3CCC4=CC(=O)C=C[C@]4(C)[C@@]3(F)[C@@H](O)C[C@@]21C            F
32  O[C@@H](CNC[C@H](O)[C@H]1CCc2cc(F)ccc2O1)[C@@H]1CCc2cc(F)ccc2O1            T
33          CCCCCCNC(=O)n1cc(F)c(=O)[nH]c1=O            F
34  CC(=O)CC(c1ccccc1)c1c(O)c2ccccc2oc1=O (stereo not drawn)            F
35           Cc1nnc(NS(=O)(=O)c2ccc(N)cc2)s1            T
36  CO[C@@]12[C@H](COC(N)=O)C3=C(C(=O)C(C)=C(N)C3=O)N1C[C@@H]1N[C@@H]12            T
37  CC[C@H](C)C(=O)O[C@H]1C[C@@H](C)C=C2C=C[C@H](C)[C@H](CC[C@@H]3C[C@@H](O)CC(=O)O3)[C@H]21            T
38         CNCC[C@H](Oc1cccc2ccccc12)c1cccs1            T
39              NCCCC(O)(P(=O)(O)O)P(=O)(O)O            T
40  CCCCS(=N)(=O)CCC(N)C(=O)O (stereo not drawn)            F
41  COc1cc2nc(N3CCCN(C)CC3)nc(NC3CCN(Cc4ccccc4)CC3)c2cc1OC            T
42  C[C@@H]1CN(c2c(F)c(N)c3c(=O)c(C(=O)O)cn(C4CC4)c3c2F)C[C@H](C)N1            F
